# Test system: 624824-186-R-J2-PDC multicell spheroids, viability
# EXPERIMENTAL PROTOCOL: Anticancer human tumor 624824-186-R-J2-PDC patient-derived colon adenocarcinoma cell line growth inhibition [PI3K]
# CONDITION DESCRIPTION: curve of first compound; second compound 0.316 µM
pIC50: −log10 of the molar value.
# pIC50 per record follows
PROPERTY MEASURED: pIC50

- MOLECULE: "Cn1nccc1Nc1nccc(-c2ccn(C(CO)c3ccc(Cl)c(F)c3)c(=O)c2)n1 (stereo not drawn) + CC(Nc1ncnc2nc[nH]c12)c1cc2cccc(Cl)c2c(=O)n1-c1ccccc1"
  SYSTEM UNDER TEST: "624824-186-R-J2-PDC multicell spheroids, viability"
  PROPERTY MEASURED: "pIC50"
  MEASURED VALUE: "< 5.00"
- MOLECULE: "CC(Cn1ccc(-c2ccc(C#N)c(Cl)c2)n1)NC(=O)c1cc(C(C)O)[nH]n1 (stereo not drawn) + CC(Nc1ncnc2nc[nH]c12)c1cc2cccc(Cl)c2c(=O)n1-c1ccccc1"
  SYSTEM UNDER TEST: "624824-186-R-J2-PDC multicell spheroids, viability"
  PROPERTY MEASURED: "pIC50"
  MEASURED VALUE: "< 5.00"
- MOLECULE: "CC1(C)CCC(Nc2ncc(C(F)(F)F)c(-c3c[nH]c4c(P(C)(C)=O)c(C#N)ccc34)n2)CN1 (stereo not drawn) + CC(Nc1ccc2c(c1)OCCn1cc(N3C(=O)OCC3C(F)F)nc1-2)C(N)=O"
  SYSTEM UNDER TEST: "624824-186-R-J2-PDC multicell spheroids, viability"
  PROPERTY MEASURED: "pIC50"
  MEASURED VALUE: 5.46

###

# Tested on: 624824-186-R-J2-PDC multicell spheroids, viability
# EXPERIMENTAL PROTOCOL: Anticancer human tumor 624824-186-R-J2-PDC cell line growth inhibition [PI3K];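 note: spheroids exposed to agents for 7 days before viability read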;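 for viability, T/C: 100% = DMSO vehicle treated spheroids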
# CONDITION DESCRIPTION: second compound 0.1 µM; first compound 3.16 µM; stronger effect = lower value
# Text: Combinatorial screen of targeted agents with the PI3K inhibitors inavolisib, alpelisib, duvelisib, and copanlisib in multi-cell type tumor spheroids A high-throughput screen of multi-cell type tumor spheroids was designed to identify active combinations of targeted small molecules and PI3K pathway inhibitors. […] Compounds. […] If the clinical Cmax for an agent had not been determined, the highest concentration tested was 10 microM. […]

- MOLECULE: "CC1(C)CCC(CN2CCN(c3ccc(C(=O)NS(=O)(=O)c4ccc(NCC5CCOCC5)c([N+](=O)[O-])c4)c(Oc4cnc5[nH]ccc5c4)c3)CC2)=C(c2ccc(Cl)cc2)C1 + Cc1nc(NC(=O)N2CCCC2C(N)=O)sc1-c1ccnc(C(C)(C)C(F)(F)F)c1"
  SYSTEM UNDER TEST: "624824-186-R-J2-PDC multicell spheroids, viability"
  viability, T/C / %: 84.1
- MOLECULE: "Cn1nccc1Nc1nccc(-c2ccn(C(CO)c3ccc(Cl)c(F)c3)c(=O)c2)n1 (stereo not given) + CC(Nc1ccc2c(c1)OCCn1cc(N3C(=O)OCC3C(F)F)nc1-2)C(N)=O"
  SYSTEM UNDER TEST: "624824-186-R-J2-PDC multicell spheroids, viability"
  viability, T/C / %: 84.9
- MOLECULE: "CCCS(=O)(=O)Nc1ccc(F)c(C(=O)c2c[nH]c3ncc(-c4ccc(Cl)cc4)cc23)c1F + Cc1nc(NC(=O)N2CCCC2C(N)=O)sc1-c1ccnc(C(C)(C)C(F)(F)F)c1"
  SYSTEM UNDER TEST: "624824-186-R-J2-PDC multicell spheroids, viability"
  viability, T/C / %: 96.5
- MOLECULE: "CC(Cn1ccc(-c2ccc(C#N)c(Cl)c2)n1)NC(=O)c1cc(C(C)O)[nH]n1 (stereo not given) + COc1c(OCCCN2CCOCC2)ccc2c3n(c(=NC(=O)c4cnc(N)nc4)nc12)CCN3"
  SYSTEM UNDER TEST: "624824-186-R-J2-PDC multicell spheroids, viability"
  viability, T/C / %: 85.1
- MOLECULE: "CC1(C)CCC(Nc2ncc(C(F)(F)F)c(-c3c[nH]c4c(P(C)(C)=O)c(C#N)ccc34)n2)CN1 (stereo not given) + COc1c(OCCCN2CCOCC2)ccc2c3n(c(=NC(=O)c4cnc(N)nc4)nc12)CCN3"
  SYSTEM UNDER TEST: "624824-186-R-J2-PDC multicell spheroids, viability"
  viability, T/C / %: 45.6

###

# Test system: 624824-186-R-J2-PDC multicell spheroids, viability
# EXPERIMENTAL PROTOCOL: Anticancer human tumor 624824-186-R-J2-PDC cell line growth inhibition [PI3K];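 note: spheroids exposed to agents for 7 days before viability read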;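 for viability, T/C: 100% = DMSO vehicle treated spheroids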
# CONDITION DESCRIPTION: second compound 1 µM; first compound 3.16 µM; stronger effect = lower value
Field: label. Allowed values: Fulfilled (viability, T/C < 60%) or Not fulfilled (viability, T/C >= 60%).

- COMPOUND: "Cn1ncc(Cl)c1-c1cc(C(=O)NC(CN)Cc2cccc(F)c2)sc1Cl (stereo not given) + Cc1nc(NC(=O)N2CCCC2C(N)=O)sc1-c1ccnc(C(C)(C)C(F)(F)F)c1"
  CLASSIFICATION: "Not fulfilled"
- COMPOUND: "CC1(C)CCC(Nc2ncc(C(F)(F)F)c(-c3c[nH]c4c(P(C)(C)=O)c(C#N)ccc34)n2)CN1 (stereo not given) + COc1c(OCCCN2CCOCC2)ccc2c3n(c(=NC(=O)c4cnc(N)nc4)nc12)CCN3"
  CLASSIFICATION: "Fulfilled"
- COMPOUND: "CC(Cn1ccc(-c2ccc(C#N)c(Cl)c2)n1)NC(=O)c1cc(C(C)O)[nH]n1 (stereo not given) + CC(Nc1ccc2c(c1)OCCn1cc(N3C(=O)OCC3C(F)F)nc1-2)C(N)=O"
  CLASSIFICATION: "Not fulfilled"
- COMPOUND: "Cn1ncc(Cl)c1-c1cc(C(=O)NC(CN)Cc2cccc(F)c2)sc1Cl (stereo not given) + COc1c(OCCCN2CCOCC2)ccc2c3n(c(=NC(=O)c4cnc(N)nc4)nc12)CCN3"
  CLASSIFICATION: "Fulfilled"
- COMPOUND: "CC1(C)CCC(Nc2ncc(C(F)(F)F)c(-c3c[nH]c4c(P(C)(C)=O)c(C#N)ccc34)n2)CN1 (stereo not given) + Cc1nc(NC(=O)N2CCCC2C(N)=O)sc1-c1ccnc(C(C)(C)C(F)(F)F)c1"
  CLASSIFICATION: "Not fulfilled"

###

# System: 624824-186-R-J2-PDC multicell spheroids, viability
# EXPERIMENTAL PROTOCOL: Anticancer human tumor 624824-186-R-J2-PDC cell line growth inhibition [PI3K];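 note: spheroids exposed to agents for 7 days before viability read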;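 for viability, T/C: 100% = DMSO vehicle treated spheroids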
# CONDITION DESCRIPTION: second compound 0.0316 µM; first compound 0.1 µM; stronger effect = lower value
Field: label. Allowed values: met (viability, T/C < 90%) or not met (viability, T/C >= 90%).

- COMPOUND: "Cn1nccc1Nc1nccc(-c2ccn(C(CO)c3ccc(Cl)c(F)c3)c(=O)c2)n1 (configuration not stated) + COc1c(OCCCN2CCOCC2)ccc2c3n(c(=NC(=O)c4cnc(N)nc4)nc12)CCN3"
  CLASSIFICATION: "met"
- COMPOUND: "CC(C)NCC(C(=O)N1CCN(c2ncnc3c2C(C)CC3O)CC1)c1ccc(Cl)cc1 (configuration not stated) + Cc1nc(NC(=O)N2CCCC2C(N)=O)sc1-c1ccnc(C(C)(C)C(F)(F)F)c1"
  CLASSIFICATION: "not met"
- COMPOUND: "CCN1CCN(Cc2ccc(Nc3ncc(F)c(-c4cc(F)c5nc(C)n(C(C)C)c5c4)n3)nc2)CC1 + Cc1nc(NC(=O)N2CCCC2C(N)=O)sc1-c1ccnc(C(C)(C)C(F)(F)F)c1"
  CLASSIFICATION: "met"
- COMPOUND: "C#Cc1c(F)ccc2cc(O)cc(-c3ncc4c(N5CC6CCC(C5)N6)nc(OCC56CCCN5CC(F)C6)nc4c3F)c12 (configuration not stated) + Cc1nc(NC(=O)N2CCCC2C(N)=O)sc1-c1ccnc(C(C)(C)C(F)(F)F)c1"
  CLASSIFICATION: "met"
- COMPOUND: "Cn1ncc(Cl)c1-c1cc(C(=O)NC(CN)Cc2cccc(F)c2)sc1Cl (configuration not stated) + COc1c(OCCCN2CCOCC2)ccc2c3n(c(=NC(=O)c4cnc(N)nc4)nc12)CCN3"
  CLASSIFICATION: "met"
- COMPOUND: "CC(=O)c1c(C)c2cnc(Nc3ccc(N4CCNCC4)cn3)nc2n(C2CCCC2)c1=O + Cc1nc(NC(=O)N2CCCC2C(N)=O)sc1-c1ccnc(C(C)(C)C(F)(F)F)c1"
  CLASSIFICATION: "met"
- COMPOUND: "CC(C)n1nc(-c2ccc3oc(N)nc3c2)c2c(N)ncnc21 + CC(Nc1ncnc2nc[nH]c12)c1cc2cccc(Cl)c2c(=O)n1-c1ccccc1"
  CLASSIFICATION: "met"
- COMPOUND: "CC(C)n1nc(-c2ccc3oc(N)nc3c2)c2c(N)ncnc21 + COc1c(OCCCN2CCOCC2)ccc2c3n(c(=NC(=O)c4cnc(N)nc4)nc12)CCN3"
  CLASSIFICATION: "met"
- COMPOUND: "Cn1ncnc1[C@H]1c2n[nH]c(=O)c3cc(F)cc(c23)N[C@@H]1c1ccc(F)cc1 + COc1c(OCCCN2CCOCC2)ccc2c3n(c(=NC(=O)c4cnc(N)nc4)nc12)CCN3"
  CLASSIFICATION: "not met"
- COMPOUND: "C=CC(=O)N1CCN(c2nc(=O)n(-c3c(C)ccnc3C(C)C)c3nc(-c4c(O)cccc4F)c(F)cc23)C(C)C1 (configuration not stated) + Cc1nc(NC(=O)N2CCCC2C(N)=O)sc1-c1ccnc(C(C)(C)C(F)(F)F)c1"
  CLASSIFICATION: "met"
- COMPOUND: "Cn1ncnc1[C@H]1c2n[nH]c(=O)c3cc(F)cc(c23)N[C@@H]1c1ccc(F)cc1 + CC(Nc1ncnc2nc[nH]c12)c1cc2cccc(Cl)c2c(=O)n1-c1ccccc1"
  CLASSIFICATION: "met"
- COMPOUND: "CC(C)n1nc(-c2ccc3oc(N)nc3c2)c2c(N)ncnc21 + Cc1nc(NC(=O)N2CCCC2C(N)=O)sc1-c1ccnc(C(C)(C)C(F)(F)F)c1"
  CLASSIFICATION: "met"
- COMPOUND: "Cn1ncnc1[C@H]1c2n[nH]c(=O)c3cc(F)cc(c23)N[C@@H]1c1ccc(F)cc1 + Cc1nc(NC(=O)N2CCCC2C(N)=O)sc1-c1ccnc(C(C)(C)C(F)(F)F)c1"
  CLASSIFICATION: "not met"
- COMPOUND: "C#Cc1c(F)ccc2cc(O)cc(-c3ncc4c(N5CC6CCC(C5)N6)nc(OCC56CCCN5CC(F)C6)nc4c3F)c12 (configuration not stated) + CC(Nc1ccc2c(c1)OCCn1cc(N3C(=O)OCC3C(F)F)nc1-2)C(N)=O"
  CLASSIFICATION: "not met"
- COMPOUND: "CC(Cn1ccc(-c2ccc(C#N)c(Cl)c2)n1)NC(=O)c1cc(C(C)O)[nH]n1 (configuration not stated) + Cc1nc(NC(=O)N2CCCC2C(N)=O)sc1-c1ccnc(C(C)(C)C(F)(F)F)c1"
  CLASSIFICATION: "not met"

src = PubChem BioAssay AID1963975
